Assign TGI LN-caP to each entry below.
system: LNCaP; assay: SRB colorimetric cell growth inhibition assay, LNCaP; assay type: cell-based; conditions: LN-caP; total growth inhibition (cytostatic effect)
Give bare numbers, in Molar.

See these solved cases before continuing.
In: Consider the molecule COc1cc(-c2c3c4cc(OC)c(OC(=O)[C@H](C)N)cc4oc(=O)c3n3ccc4c(OC(=O)[C@H](C)N)c(OC)c(OC)cc4c23)ccc1OC(=O)[C@H](C)N [Compound 16] and give its measured TGI LN-caP.
Out: 2.65E−07

In: Consider the molecule COc1cc(-c2c3c4cc(OC)c(OC(=O)[C@@H](N)C(C)C)cc4oc(=O)c3n3ccc4c(OC(=O)[C@@H](N)C(C)C)c(OC)c(OC)cc4c23)ccc1OC(=O)[C@@H](N)C(C)C and give its measured TGI LN-caP.
Out: 2.97E−07

Now look at this entry.
In: Consider the molecule COc1cc2c(cc1O)oc(=O)c1c2c(-c2ccc(OC(=O)[C@H](C)N)c(OC)c2)c2c3cc(OC)c(O)cc3ccn21.Cl and give its measured TGI LN-caP.
Out: 1.65E−05

---

test system: IGROV; test: SRB colorimetric cell growth inhibition assay, IGROV; assay type: cell-based; settings: IGROV; cell killing (cytotoxic effect); read-out: LC50 IGROV
REPORTED_ENDPOINT: CC50 (µM)
Give bare numbers, in µM.

In: Consider the molecule COc1cc(-c2c3c4cc(OC)c(OC(=O)[C@@H](N)Cc5ccccc5)cc4oc(=O)c3n3ccc4c(OC(=O)[C@@H](N)Cc5ccccc5)c(OC)c(OC)cc4c23)ccc1OC(=O)[C@@H](N)Cc1ccccc1 [Compound 31] and give its measured CC50.
Out: 7.62

In: Consider the molecule COc1cc(-c2c3c4cc(OC)c(OC(=O)[C@H](C)N)cc4oc(=O)c3n3ccc4cc(O)c(OC)cc4c23)ccc1O.Cl and give its measured CC50.
Out: 3.64

Now look at this entry.
In: Consider the molecule COc1cc(-c2c3c4cc(OC)c(OC(=O)[C@@H](N)Cc5ccccc5)cc4oc(=O)c3n3ccc4c(OC(=O)[C@@H](N)Cc5ccccc5)c(OC)c(OC)cc4c23)ccc1OC(=O)[C@@H](N)Cc1ccccc1 [Compound 207] and give its measured CC50.
Out: 1.55

---

test system: IGROV-ET; experiment: SRB colorimetric cell growth inhibition assay, IGROV-ET (ET-743 resistant); format: cell-based; conditions: Homo sapiens, IGROV-ET; GI=growth inhibition; read-out: GI50 IGROV-ET
Assign GI50 to each entry below.
Answers are plain numbers, in nM.

In: # get_value(readout= GI50, system= IGROV-ET) for COc1cc2ccn3c(c(-c4ccc(OC(=O)[C@@H](N)Cc5ccccc5)c(OC)c4)c4c5cc(OC)c(OC(=O)[C@@H](N)Cc6ccccc6)cc5oc(=O)c43)c2cc1OC
Out: 1960

Field: GI50. Fill in for each record below.
1. COc1cc(-c2c3c4cc(OC)c(OC(=O)CCCCCN)cc4oc(=O)c3n3ccc4cc(OC(=O)CCCCCN)c(OC)cc4c23)ccc1OC(=O)CCCCCN
2. COc1cc(-c2c3c4cc(OC)c(OC(=O)[C@@H](N)C(C)C)cc4oc(=O)c3n3ccc4cc(OC(=O)[C@@H](N)C(C)C)c(OC)cc4c23)ccc1OC(=O)[C@@H](N)C(C)C
3. COc1cc(-c2c3n(c4c(=O)oc5cc(OC(=O)[C@H](N)C(C)C)c(OC)cc5c24)CCc2cc(OC(=O)[C@H](N)C(C)C)c(OC)cc2-3)ccc1OC(=O)[C@H](N)C(C)C

Out:
41.8
41.7
666

In: # get_value(readout= GI50, system= IGROV-ET) for COc1cc2c(cc1OC)-c1c(-c3ccc(OC(=O)[C@H](C)NC(=O)OC(C)(C)C)c(OC)c3)c3c4cc(OC)c(OC(=O)[C@H](C)NC(=O)OC(C)(C)C)cc4oc(=O)c3n1CC2
Out: 901

---

system: PANC-1; assay: SRB colorimetric cell growth inhibition assay, PANC-1; type: cell-based; details: PANC-1; cell killing (cytotoxic effect); read-out: LC50 PANC-1
Assign CC50 to each entry below.
Answers are plain numbers, in µM.

Field: CC50. Fill in for each record below.
1. COc1cc(-c2c3c4cc(OC)c(OC(=O)[C@H](C)N)cc4oc(=O)c3n3ccc4c(OC(=O)[C@H](C)N)c(OC)c(OC)cc4c23)ccc1OC(=O)[C@H](C)N [Compound 191]
2. COc1cc(-c2c3c4cc(OC)c(OC(=O)[C@H](C)N)cc4oc(=O)c3n3ccc4c(OC(=O)[C@H](C)N)c(OC)c(OC)cc4c23)ccc1OC(=O)[C@H](C)N [Compound 16]
3. COc1cc(-c2c3c4cc(OC)c(OC(=O)[C@H](C)N)cc4oc(=O)c3n3ccc4cc(O)c(OC)cc4c23)ccc1O.Cl

Out:
1: 11.7; 2: 3.34; 3: 8.86

---

system: K-562; assay: SRB colorimetric cell growth inhibition assay, K-562; format: cell-based; conditions: Homo sapiens, K562, K-562; total growth inhibition (cytostatic effect); read-out: TGI K-562
Is IC (TGI) at least 3 µM? Then 1.0. If not, 0.0.

Solved cases below.
In: Exam item: decide whether the reported IC (TGI) for COc1cc(-c2c3c4cc(OC)c(OC(=O)[C@@H](N)Cc5ccccc5)cc4oc(=O)c3n3ccc4cc(OC(=O)[C@@H](N)Cc5ccccc5)c(OC)cc4c23)ccc1OC(=O)[C@@H](N)Cc1ccccc1 [Compound 204] is at least 3 µM.
Out: 0.0

In: Exam item: decide whether the reported IC (TGI) for C=CCOC(=O)N[C@@H](C)C(=O)Oc1ccc(-c2c3c4cc(OC)c(OC(=O)[C@H](C)NC(=O)OCC=C)cc4oc(=O)c3n3ccc4cc(OC(=O)[C@H](C)NC(=O)OCC=C)c(OC)cc4c23)cc1OC [Compound 210] is at least 3 µM.
Out: 0.0

In: Exam item: decide whether the reported IC (TGI) for COc1cc(-c2c3c4cc(OC)c(OC(=O)[C@H](C)NC(=O)[C@H](C)N)cc4oc(=O)c3n3ccc4c(OC(=O)[C@H](C)NC(=O)[C@H](C)N)c(OC)c(OC)cc4c23)ccc1OC(=O)[C@H](C)NC(=O)[C@H](C)N [Compound 5] is at least 3 µM.
Out: 0.0

In: Exam item: decide whether the reported IC (TGI) for COc1cc(-c2c3n(c4c(=O)oc5cc(OC(=O)[C@@H]6CCCN6)c(OC)cc5c24)CCc2c-3cc(OC)c(OC)c2OC(=O)[C@@H]2CCCN2)ccc1OC(=O)[C@@H]1CCCN1 [Compound 118] is at least 3 µM.
Out: 0.0

New cases:
In: Exam item: decide whether the reported IC (TGI) for COc1cc(-c2c3c4cc(OC)c(OC(=O)C[C@H](N)C(C)C)cc4oc(=O)c3n3ccc4cc(OC(=O)C[C@H](N)C(C)C)c(OC)cc4c23)ccc1OC(=O)C[C@H](N)C(C)C [Compound 206] is at least 3 µM.
Out: 0.0

In: Exam item: decide whether the reported IC (TGI) for COc1cc(-c2c3c4cc(OC)c(OC(=O)[C@@H](N)CO)cc4oc(=O)c3n3ccc4c(OC(=O)[C@@H](N)CO)c(OC)c(OC)cc4c23)ccc1OC(=O)[C@@H](N)CO [Compound 9] is at least 3 µM.
Out: 0.0

In: Exam item: decide whether the reported IC (TGI) for COc1cc(-c2c3c4cc(OC)c(OC(=O)CCCCCN)cc4oc(=O)c3n3ccc4cc(OC(=O)CCCCCN)c(OC)cc4c23)ccc1OC(=O)CCCCCN [Compound 169] is at least 3 µM.
Out: 1.0

In: Exam item: decide whether the reported IC (TGI) for COc1cc2ccn3c(c(-c4ccc(OS(=O)(=O)C(F)(F)F)c(OC)c4)c4c5cc(OC)c(OS(=O)(=O)C(F)(F)F)cc5oc(=O)c43)c2cc1OC [Compound 126] is at least 3 µM.
Out: 1.0

In: Exam item: decide whether the reported IC (TGI) for COc1cc(-c2c3c4cc(OC)c(OC(=O)[C@H](N)C(C)C)cc4oc(=O)c3n3ccc4cc(OC(=O)[C@H](N)C(C)C)c(OC)cc4c23)ccc1OC(=O)[C@H](N)C(C)C [Compound 17] is at least 3 µM.
Out: 0.0

In: Exam item: decide whether the reported IC (TGI) for COc1cc(-c2c3c4cc(OC)c(OC(=O)[C@@H](N)C(C)C)cc4oc(=O)c3n3ccc4cc(OC(=O)[C@@H](N)C(C)C)c(OC)cc4c23)ccc1OC(=O)[C@@H](N)C(C)C [Compound 195] is at least 3 µM.
Out: 0.0

In: Exam item: decide whether the reported IC (TGI) for COc1cc(-c2c3c4cc(OC)c(O)cc4oc(=O)c3n3ccc4c(N)cccc4c23)ccc1O [Compound 182] is at least 3 µM.
Out: 1.0

In: Exam item: decide whether the reported IC (TGI) for COc1cc(-c2c3c4cc(OC)c(OC(C)C)cc4oc(=O)c3n3ccc4c(OC(C)C)c(OC)c(OC)c(COS(C)(=O)=O)c4c23)ccc1OC(C)C [Compound 101] is at least 3 µM.
Out: 1.0

In: Exam item: decide whether the reported IC (TGI) for COc1cc(-c2c3c4cc(OC)c(O)cc4oc(=O)c3n3ccc4cc(O)c(OC)cc4c23)ccc1O [Compound 3, lamellarin D, reference compound] is at least 3 µM.
Out: 0.0

In: Exam item: decide whether the reported IC (TGI) for COc1cc(-c2c3n(c4c(=O)oc5cc(OC(=O)[C@H](C)N)c(OC)cc5c24)CCc2c-3cc(OC)c(OC)c2OC(=O)[C@H](C)N)ccc1OC(=O)[C@H](C)N [Compound 96] is at least 3 µM.
Out: 1.0

In: Exam item: decide whether the reported IC (TGI) for COc1cc2c(cc1O)CCn1c-2cc2c3cc(OC)c(O)cc3oc(=O)c21 [Compound 196] is at least 3 µM.
Out: 0.0

In: Exam item: decide whether the reported IC (TGI) for COc1cc(-c2c3c4cc(OC)c(O)cc4oc(=O)c3n3ccc4cc(OC)c(OC)cc4c23)ccc1O [Compound 26] is at least 3 µM.
Out: 1.0

In: Exam item: decide whether the reported IC (TGI) for COc1cc(-c2c3c4cc(OC)c(OC(=O)[C@@H](N)C(C)C)cc4oc(=O)c3n3ccc4c(OC(=O)[C@@H](N)C(C)C)c(OC)c(OC)cc4c23)ccc1OC(=O)[C@@H](N)C(C)C [Compound 190] is at least 3 µM.
Out: 1.0

In: Exam item: decide whether the reported IC (TGI) for COc1cc2c(cc1O)oc(=O)c1c2c(-c2ccc(OC)c(OC)c2)c2c3cc(OC)c(O)cc3ccn21 [Compound 233] is at least 3 µM.
Out: 0.0

In: Exam item: decide whether the reported IC (TGI) for COc1cc(-c2c3c4cc(OC)c(OC(=O)[C@H](C)N)cc4oc(=O)c3n3ccc4cc(OC(=O)[C@H](C)N)c(OC)cc4c23)ccc1OC(=O)[C@H](C)N [Compound 199] is at least 3 µM.
Out: 0.0

In: Exam item: decide whether the reported IC (TGI) for COc1cc2c(cc1OC)-c1c(-c3ccc(OC(=O)[C@H](C)NC(=O)OC(C)(C)C)c(OC)c3)c3c4cc(OC)c(OC(=O)[C@H](C)NC(=O)OC(C)(C)C)cc4oc(=O)c3n1CC2 [Compound 21] is at least 3 µM.
Out: 0.0

// provenance: patent US7396837B2
